- TARGET_OR_SYSTEM: FL-SMARCA2 (full-length human SMARCA2 isoform 1) (Homo sapiens, UniProt P51531)
- Construct: FLAG tag (YKDDDDK) (C); made in house; host or cells: Sf21 insect cells (baculovirus, pFastBacI)
- Sequence (P51531 with tags, fused parts or gaps): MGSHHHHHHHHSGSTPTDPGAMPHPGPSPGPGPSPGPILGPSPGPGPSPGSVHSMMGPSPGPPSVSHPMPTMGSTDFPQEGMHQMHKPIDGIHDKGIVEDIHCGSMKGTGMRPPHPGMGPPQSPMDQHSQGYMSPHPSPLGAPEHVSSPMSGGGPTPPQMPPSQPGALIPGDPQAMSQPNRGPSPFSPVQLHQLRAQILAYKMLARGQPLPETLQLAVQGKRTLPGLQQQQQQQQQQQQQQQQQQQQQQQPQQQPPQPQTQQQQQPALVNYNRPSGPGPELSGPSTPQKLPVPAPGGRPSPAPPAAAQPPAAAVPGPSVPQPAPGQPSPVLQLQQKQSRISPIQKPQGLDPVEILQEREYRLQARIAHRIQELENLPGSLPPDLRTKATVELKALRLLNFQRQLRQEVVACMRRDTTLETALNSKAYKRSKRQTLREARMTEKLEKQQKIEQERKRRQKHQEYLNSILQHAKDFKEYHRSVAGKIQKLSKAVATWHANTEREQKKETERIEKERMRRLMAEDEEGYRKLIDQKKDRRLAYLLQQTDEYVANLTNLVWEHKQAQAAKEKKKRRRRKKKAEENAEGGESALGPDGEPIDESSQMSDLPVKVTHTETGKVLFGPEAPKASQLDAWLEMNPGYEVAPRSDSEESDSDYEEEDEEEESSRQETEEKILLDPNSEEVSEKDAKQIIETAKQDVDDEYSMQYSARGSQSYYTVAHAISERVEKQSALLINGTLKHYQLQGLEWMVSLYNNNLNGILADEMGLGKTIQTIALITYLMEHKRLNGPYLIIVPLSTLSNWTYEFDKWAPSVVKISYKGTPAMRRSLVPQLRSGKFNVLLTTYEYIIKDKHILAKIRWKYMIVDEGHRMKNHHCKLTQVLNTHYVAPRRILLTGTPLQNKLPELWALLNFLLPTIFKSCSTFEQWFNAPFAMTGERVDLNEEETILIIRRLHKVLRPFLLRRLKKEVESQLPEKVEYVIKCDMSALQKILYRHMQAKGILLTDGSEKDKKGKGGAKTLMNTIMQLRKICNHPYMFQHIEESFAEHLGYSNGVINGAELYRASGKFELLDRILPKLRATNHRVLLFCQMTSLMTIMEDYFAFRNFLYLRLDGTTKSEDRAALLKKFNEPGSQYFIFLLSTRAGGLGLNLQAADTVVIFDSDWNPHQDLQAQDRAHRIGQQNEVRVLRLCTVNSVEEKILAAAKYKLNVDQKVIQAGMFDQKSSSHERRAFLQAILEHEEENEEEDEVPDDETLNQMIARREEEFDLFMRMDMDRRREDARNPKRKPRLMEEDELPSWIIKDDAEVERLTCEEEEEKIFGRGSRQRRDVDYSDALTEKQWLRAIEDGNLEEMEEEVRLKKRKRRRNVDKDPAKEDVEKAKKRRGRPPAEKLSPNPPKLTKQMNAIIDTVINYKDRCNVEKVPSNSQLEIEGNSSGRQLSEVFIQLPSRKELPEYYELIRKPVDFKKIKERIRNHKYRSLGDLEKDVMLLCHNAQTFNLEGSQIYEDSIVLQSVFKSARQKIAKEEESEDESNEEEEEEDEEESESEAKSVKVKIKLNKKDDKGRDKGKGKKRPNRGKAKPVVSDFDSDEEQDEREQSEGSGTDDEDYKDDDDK
- EXPERIMENT_NOTES: SMARCA2 ATPase activity assay (ADP-Glo, chicken mononucleosome substrate)
- Format: biochemical
- TEST_CONTEXT: Table 3.1; ATPase assay, enzyme 5 nM, ATP 250 uM, chicken mononucleosome 10 nM, 30 min preincubation
pIC50: −log10 of the molar value.
ATTRIBUTE_MEASURED: pIC50

INSERT INTO measurements (structure_as_smiles, limit_operator, val) VALUES
  ('O=C(Nc1cc(F)c(=O)n(CCF)c1)c1cc(Cl)c(F)s1', '=', 6.88),
  ('CN(C)C(=O)c1sc(C(=O)Nc2cc(F)c(=O)n(CCF)c2)cc1Cl', '<', 4.30),
  ('O=C(Nc1ccc(=O)n(CCF)c1)c1cc(Cl)c(Cl)[nH]1', '=', 5.82),
  ('Cn1nc(C(=O)Nc2cc(F)c(=O)n(CCF)c2)cc1Cl', '<', 4.30),
  ('CCn1cc(NC(=O)c2cc(C#N)[nH]n2)ccc1=O', '=', 5.69);

====

- TARGET_OR_SYSTEM: FL-SMARCA4 (Homo sapiens, UniProt P51532)
- Sequence (P51532 whole entry): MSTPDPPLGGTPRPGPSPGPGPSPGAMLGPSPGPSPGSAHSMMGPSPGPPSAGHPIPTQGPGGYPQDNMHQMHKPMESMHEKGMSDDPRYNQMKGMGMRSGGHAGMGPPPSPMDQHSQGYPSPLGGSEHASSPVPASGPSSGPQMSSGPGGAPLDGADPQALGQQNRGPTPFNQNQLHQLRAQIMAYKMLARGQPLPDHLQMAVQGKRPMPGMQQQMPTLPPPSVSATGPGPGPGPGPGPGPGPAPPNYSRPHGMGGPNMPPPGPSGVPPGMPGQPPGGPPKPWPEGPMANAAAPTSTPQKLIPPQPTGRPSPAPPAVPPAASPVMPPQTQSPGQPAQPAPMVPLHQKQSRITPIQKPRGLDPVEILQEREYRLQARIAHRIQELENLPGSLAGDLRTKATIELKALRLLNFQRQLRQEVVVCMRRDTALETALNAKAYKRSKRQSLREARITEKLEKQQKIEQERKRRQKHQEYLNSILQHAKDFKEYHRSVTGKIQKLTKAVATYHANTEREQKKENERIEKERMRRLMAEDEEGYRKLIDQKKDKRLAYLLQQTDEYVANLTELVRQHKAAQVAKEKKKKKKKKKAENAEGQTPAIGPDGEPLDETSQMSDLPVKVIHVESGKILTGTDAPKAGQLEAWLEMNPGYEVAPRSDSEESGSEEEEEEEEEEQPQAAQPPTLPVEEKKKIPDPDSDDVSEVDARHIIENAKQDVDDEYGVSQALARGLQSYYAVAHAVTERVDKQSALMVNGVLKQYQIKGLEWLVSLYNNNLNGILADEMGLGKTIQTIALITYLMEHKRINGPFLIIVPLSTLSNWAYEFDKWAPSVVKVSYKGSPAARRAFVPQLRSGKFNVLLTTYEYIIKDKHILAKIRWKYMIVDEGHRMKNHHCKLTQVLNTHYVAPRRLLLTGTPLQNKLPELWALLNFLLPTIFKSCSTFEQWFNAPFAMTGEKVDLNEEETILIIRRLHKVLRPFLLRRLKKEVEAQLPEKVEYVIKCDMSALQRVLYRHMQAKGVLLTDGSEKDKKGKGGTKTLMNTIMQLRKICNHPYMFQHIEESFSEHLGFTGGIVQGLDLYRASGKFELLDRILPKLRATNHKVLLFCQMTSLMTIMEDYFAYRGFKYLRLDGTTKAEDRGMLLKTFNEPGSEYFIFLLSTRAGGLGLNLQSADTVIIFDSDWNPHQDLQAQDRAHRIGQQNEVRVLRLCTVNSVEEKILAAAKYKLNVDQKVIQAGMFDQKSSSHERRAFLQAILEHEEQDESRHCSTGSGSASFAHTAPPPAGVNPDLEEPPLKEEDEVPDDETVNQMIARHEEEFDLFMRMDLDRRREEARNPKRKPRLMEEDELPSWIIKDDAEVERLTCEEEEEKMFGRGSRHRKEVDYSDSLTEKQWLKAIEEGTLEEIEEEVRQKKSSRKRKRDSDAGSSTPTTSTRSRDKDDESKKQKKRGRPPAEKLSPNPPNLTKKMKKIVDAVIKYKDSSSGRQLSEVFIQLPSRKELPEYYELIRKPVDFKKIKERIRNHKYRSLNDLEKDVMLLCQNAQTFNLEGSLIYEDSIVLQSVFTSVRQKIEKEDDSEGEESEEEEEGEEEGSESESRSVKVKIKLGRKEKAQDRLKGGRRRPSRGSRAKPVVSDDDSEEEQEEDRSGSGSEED
- EXPERIMENT_NOTES: SMARCA4 ATPase activity assay (ADP-Glo, chicken mononucleosome substrate)
- TEST_CONTEXT: FL-SMARCA4 IC50, Table 3b.2; SMARCA4 5 nM, ATP 250 uM, mononucleosome 10 nM
pIC50: −log10 of the molar value.
Measured pIC50, listed per entry.
ATTRIBUTE_MEASURED: pIC50

INSERT INTO results (compound, attribute_measured, val) VALUES
  ('CCn1cc(NC(=O)c2cccc(Cl)c2)ccc1=O [Compound 6b]', 'pIC50', '< 4.30'),
  ('CCn1cc(NC(=O)[C@@H]2CCC[C@@H](Cl)C2)ccc1=O [Compound 14b]', 'pIC50', '< 4.30'),
  ('CCn1cc(NC(=O)c2cccc(Cl)c2F)ccc1=O [Compound 10b]', 'pIC50', '< 4.30'),
  ('CCn1cc(NC(=O)C2CCCCC2)ccc1=O [Compound 12b]', 'pIC50', '< 4.30'),
  ('CCn1cc(NC(=O)c2ccc(F)c(Cl)c2)ccc1=O [Compound 8b]', 'pIC50', '< 4.30'),
  ('CCn1cc(NC(=O)C2CCCC2)ccc1=O [Compound 11b]', 'pIC50', '< 4.30'),
  ('N#Cc1ccc(C(=O)Nc2cc(F)c(=O)n(CCF)c2)cc1C#N [Compound 20b]', 'pIC50', 4.94),
  ('Cc1c(Cl)cccc1C(=O)Nc1c[nH]c(=O)c(C)c1 [Compound 2b]', 'pIC50', '< 4.30'),
  ('CCn1cc(NC(=O)c2ccc(Cl)c(Cl)c2)ccc1=O [Compound 4b]', 'pIC50', '< 4.30'),
  ('CCn1cc(NC(=O)c2ccc(Cl)c(F)c2)ccc1=O [Compound 9b]', 'pIC50', '< 4.30'),
  ('NS(=O)(=O)c1ccc(C(=O)Nc2cc(F)c(=O)n(CCF)c2)cc1Cl [Compound 23b]', 'pIC50', '< 4.30'),
  ('CCn1cc(NC(=O)C2C(C)(C)C2(C)C)ccc1=O [Compound 3b]', 'pIC50', '< 4.30'),
  ('O=C(Nc1cc(F)c(=O)n(CCF)c1)c1ccc(Cl)c(Cl)c1 [Compound 17b]', 'pIC50', 5.32),
  ('N#Cc1cc(C(=O)Nc2cc(F)c(=O)n(CCF)c2)ccc1Cl [Compound 18b]', 'pIC50', 5.27),
  ('CCn1cc(NC(=O)[C@H]2CC[C@@H](Cl)C2)ccc1=O [Compound 16b]', 'pIC50', '< 4.30'),
  ('CCn1cc(NC(=O)[C@@H]2CC[C@H](Cl)C2)ccc1=O [Compound 15b]', 'pIC50', '< 4.30'),
  ('CN(C)C(=O)c1ccc(C(=O)Nc2cc(F)c(=O)n(CCF)c2)cc1 [Compound 21b]', 'pIC50', '< 4.30'),
  ('N#Cc1ccc(C(=O)Nc2cc(F)c(=O)n(CCF)c2)cc1Cl [Compound 19b]', 'pIC50', 4.90),
  ('CC(=O)c1cc(C(=O)Nc2c[nH]c(=O)c(C)c2)ccc1C [Compound 1b]', 'pIC50', '< 4.30'),
  ('CCn1cc(NC(=O)c2cc(Cl)cc(Cl)c2)ccc1=O [Compound 5b]', 'pIC50', '< 4.30');

====

- TARGET_OR_SYSTEM: FL-SMARCA4 (Homo sapiens)
- EXPERIMENT_NOTES: SMARCA4 ATPase activity assay (ADP-Glo, chicken mononucleosome substrate)
- TEST_CONTEXT: FL-SMARCA4 IC50, Table 3.2; ATPase assay, enzyme 5 nM, ATP 250 uM, chicken mononucleosome 10 nM, 30 min preincubation
pIC50: −log10 of the molar value.
ATTRIBUTE_MEASURED: pIC50

INSERT INTO assay_data (structure_as_smiles, limit_operator, val) VALUES
  ('CCn1cc(NC(=O)c2csc(NC(C)C)n2)ccc1=O', '<', 4.30),
  ('Cn1c(C(=O)Nc2cc(F)c(=O)n(CCF)c2)cc(Cl)c1Cl', '=', 6.15),
  ('CS(=O)(=O)c1cc(C(=O)Nc2cc(F)c(=O)n(CCF)c2)sc1Cl', '=', 5.49),
  ('CCn1cc(NC(=O)c2cnc(NC(C)C)s2)ccc1=O', '<', 4.30),
  ('CCn1cc(NC(=O)c2cc(Cl)c(Cl)n2Cc2ccccc2)ccc1=O', '<', 4.30),
  ('CCn1cc(NC(=O)c2cnc(C#N)s2)cc(F)c1=O', '=', 7.02),
  ('CCn1cc(NC(=O)c2cc(Cl)c(Cl)s2)cc(Cl)c1=O', '=', 5.95),
  ('O=C(Nc1cc(F)c(=O)n(CCF)c1)c1cc(F)c(F)s1', '=', 6.64),
  ('COCCn1cc(NC(=O)c2cnn(-c3ccccc3C)c2C)ccc1=O', '<', 4.30),
  ('Cn1c(C(=O)Nc2cc(F)c(=O)n(CCF)c2)cnc1C#N', '=', 5.71),
  ('Cn1cc(NC(=O)c2coc(Br)c2)cc(Cl)c1=O', '<', 4.30),
  ('CCn1cc(NC(=O)c2csc(-c3ccc(C)n3C)n2)ccc1=O', '<', 4.30),
  ('O=C(Nc1ccc(=O)n(CCF)c1)c1cc(Cl)c(Cl)[nH]1', '=', 4.96),
  ('Cn1cc(NC(=O)c2cnc(-c3ccco3)s2)cc(Cl)c1=O', '<', 4.30),
  ('CCn1cc(NC(=O)c2cn(C(F)(F)F)c(Cl)n2)ccc1=O', '<', 4.30),
  ('CCn1cc(NC(=O)c2cnc(C#N)s2)cc(Cl)c1=O', '=', 6.73),
  ('CS(=O)(=O)c1sc(C(=O)Nc2cc(F)c(=O)n(CCF)c2)cc1Cl', '<', 4.30),
  ('O=C(Nc1cc(NCCN2CCCC2)c(=O)n(CCF)c1)c1cc(Cl)c(Cl)s1', '=', 4.61),
  ('Cn1c(C(=O)Nc2cc(F)c(=O)n(CC(F)(F)F)c2)cc(Cl)c1Cl', '=', 5.93),
  ('N#Cc1ncc(C(=O)Nc2cc(F)c(=O)n(CCF)c2)o1', '<', 4.30),
  ('CN(C)C(=O)c1sc(C(=O)Nc2cc(F)c(=O)n(CCF)c2)cc1Cl', '<', 4.30),
  ('N#Cc1cc(NC(=O)c2cc(Cl)c(Cl)s2)cn(CCF)c1=O', '=', 5.05),
  ('O=C(Nc1ccc(=O)n(Cc2ccccc2)c1)c1ccc(Br)s1', '<', 4.30),
  ('N#Cc1cc(C(=O)Nc2cc(Cl)c(=O)n(CCF)c2)sc1C#N', '=', 7.06),
  ('O=C(Nc1cc(F)c(=O)n(CC(F)F)c1)c1cc(Cl)no1', '=', 4.77),
  ('O=C(Nc1cc(F)c(=O)n(CCF)c1)c1cnc(C(F)(F)F)s1', '=', 6.23),
  ('CCn1cc(NC(=O)c2cc(Cl)c(Cl)s2)cc(NC)c1=O', '<', 4.30),
  ('CCn1nc(C(=O)Nc2ccc(=O)n(CC)c2)cc1C', '<', 4.30),
  ('N#Cc1sc(C(=O)Nc2cc(F)c(=O)n(CC(F)(F)F)c2)cc1Cl', '=', 6.83),
  ('CCn1cc(NC(=O)c2cc(Cl)c(Cl)n2C)ccc1=O', '=', 4.40),
  ('CCn1cc(NC(=O)c2nc(Br)cs2)ccc1=O', '<', 4.30),
  ('Cn1c(C(=O)Nc2ccc(=O)n(CC(F)(F)F)c2)cc(Cl)c1Cl', '=', 4.78),
  ('Cn1ccnc1-c1ccc(C(=O)Nc2cc(F)c(=O)n(CCF)c2)s1', '<', 4.30),
  ('N#Cc1cc(NC(=O)c2cc(F)c(Cl)s2)cn(CC(F)F)c1=O', '=', 6.44),
  ('CCn1cc(NC(=O)c2cc(Cl)ns2)ccc1=O', '<', 4.30),
  ('CCn1cc(NC(=O)c2cc(Cl)cs2)ccc1=O', '<', 4.30),
  ('CN(C)C(=O)c1ccc(C(=O)Nc2cc(F)c(=O)n(CCF)c2)s1', '<', 4.30),
  ('O=C(Nc1cc(F)c(=O)n(CCF)c1)c1ccc(-c2cccnc2)s1', '<', 4.30);

All values here come from patent US20220356174A1.
